TARGET OF ASSAY: UniProtKB Q15858
Sequence (Q15858 whole entry): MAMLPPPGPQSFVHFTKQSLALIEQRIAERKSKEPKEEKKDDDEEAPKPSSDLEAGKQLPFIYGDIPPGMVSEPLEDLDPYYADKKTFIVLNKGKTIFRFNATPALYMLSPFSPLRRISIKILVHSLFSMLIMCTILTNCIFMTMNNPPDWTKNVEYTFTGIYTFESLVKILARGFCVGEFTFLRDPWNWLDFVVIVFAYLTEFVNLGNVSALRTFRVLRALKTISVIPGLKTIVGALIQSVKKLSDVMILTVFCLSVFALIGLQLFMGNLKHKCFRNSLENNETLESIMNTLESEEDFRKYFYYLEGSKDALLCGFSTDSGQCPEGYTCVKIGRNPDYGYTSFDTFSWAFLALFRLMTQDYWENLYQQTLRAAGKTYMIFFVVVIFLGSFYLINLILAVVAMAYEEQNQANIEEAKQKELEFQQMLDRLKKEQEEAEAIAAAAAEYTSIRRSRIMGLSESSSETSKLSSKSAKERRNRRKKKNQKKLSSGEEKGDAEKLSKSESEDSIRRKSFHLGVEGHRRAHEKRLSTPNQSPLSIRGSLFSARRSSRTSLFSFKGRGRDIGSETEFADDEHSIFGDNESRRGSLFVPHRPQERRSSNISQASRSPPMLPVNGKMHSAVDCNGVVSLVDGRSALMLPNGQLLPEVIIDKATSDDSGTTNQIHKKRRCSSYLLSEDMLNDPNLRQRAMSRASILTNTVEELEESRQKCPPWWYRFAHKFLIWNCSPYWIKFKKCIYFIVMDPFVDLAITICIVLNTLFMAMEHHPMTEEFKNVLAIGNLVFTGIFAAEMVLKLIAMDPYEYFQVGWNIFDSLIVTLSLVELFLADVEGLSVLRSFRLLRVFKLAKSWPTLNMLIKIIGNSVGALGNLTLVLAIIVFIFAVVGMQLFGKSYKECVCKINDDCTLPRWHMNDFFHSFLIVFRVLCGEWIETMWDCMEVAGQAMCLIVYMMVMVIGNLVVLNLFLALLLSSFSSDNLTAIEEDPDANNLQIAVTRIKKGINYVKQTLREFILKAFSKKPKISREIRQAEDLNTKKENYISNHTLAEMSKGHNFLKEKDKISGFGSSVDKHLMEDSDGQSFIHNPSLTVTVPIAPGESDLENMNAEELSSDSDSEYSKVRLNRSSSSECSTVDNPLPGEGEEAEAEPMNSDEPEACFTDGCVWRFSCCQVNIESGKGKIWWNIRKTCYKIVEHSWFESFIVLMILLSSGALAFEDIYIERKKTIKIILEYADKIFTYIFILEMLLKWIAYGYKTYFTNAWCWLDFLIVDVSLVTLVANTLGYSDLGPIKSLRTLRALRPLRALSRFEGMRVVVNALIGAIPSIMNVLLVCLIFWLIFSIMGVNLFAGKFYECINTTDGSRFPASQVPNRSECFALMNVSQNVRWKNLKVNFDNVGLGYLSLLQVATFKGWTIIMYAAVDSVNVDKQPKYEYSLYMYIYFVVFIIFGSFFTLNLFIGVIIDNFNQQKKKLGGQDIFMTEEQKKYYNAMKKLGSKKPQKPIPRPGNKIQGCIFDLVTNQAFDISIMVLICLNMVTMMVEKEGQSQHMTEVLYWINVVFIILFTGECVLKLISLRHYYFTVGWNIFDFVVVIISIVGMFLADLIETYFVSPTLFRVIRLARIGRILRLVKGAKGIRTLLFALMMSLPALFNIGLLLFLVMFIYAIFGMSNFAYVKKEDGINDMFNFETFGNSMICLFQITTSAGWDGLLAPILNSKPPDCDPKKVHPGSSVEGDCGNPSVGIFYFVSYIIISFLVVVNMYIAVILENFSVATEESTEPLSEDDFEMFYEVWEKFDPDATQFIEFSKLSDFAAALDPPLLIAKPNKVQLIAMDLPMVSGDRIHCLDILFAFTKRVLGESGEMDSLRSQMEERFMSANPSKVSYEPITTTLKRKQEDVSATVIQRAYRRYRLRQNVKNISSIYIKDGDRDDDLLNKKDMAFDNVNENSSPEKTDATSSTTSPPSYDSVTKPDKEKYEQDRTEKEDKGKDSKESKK
EXPERIMENT: Nav 1.7 in vitro assay (IonWorks Quattro population patch-clamp)
TEST SETTINGS: 293 cells stably transfected with Nav 1.7; 26th pulse to -20 mV, 5 Hz
pIC50: −log10 of the molar value. Counter-ions that a name gives are not always drawn.
Rule: yes for pIC50 not less than 6, no for anything less.

API: above_or_equal(metric=pIC50, cutoff=6) for item Cn1cc(-c2ccc(C(F)(F)F)cc2-c2cn[nH]c2)c2ccc(S(=O)(=O)Nc3ncns3)cc21
yes

API: above_or_equal(metric=pIC50, cutoff=6) for item Cn1nccc1-c1cc(C(F)(F)F)ccc1-c1cn(C)c2cc(S(=O)(=O)Nc3nncs3)ccc12
no

API: above_or_equal(metric=pIC50, cutoff=6) for item Cn1nccc1-c1cc(C(F)(F)F)ccc1-c1c[nH]c2nc(S(=O)(=O)Nc3ncns3)ccc12
no

API: above_or_equal(metric=pIC50, cutoff=6) for item CC(C)n1cc(-c2ccc(C(F)(F)F)cc2-c2ccnn2C)c2ccc(S(=O)(=O)Nc3ncns3)cc21
no

API: above_or_equal(metric=pIC50, cutoff=6) for item Cn1nccc1-c1cc(C(F)(F)F)ccc1-c1cn(S(C)(=O)=O)c2cc(S(=O)(=O)Nc3ncns3)ccc12
yes

API: above_or_equal(metric=pIC50, cutoff=6) for item Cn1cc(-c2ccc(C(F)(F)F)cc2-c2ccncc2)c2ccc(S(=O)(=O)Nc3ncns3)cc21
yes

API: above_or_equal(metric=pIC50, cutoff=6) for item Cn1cc(-c2cccc3c2CNCC3)c2ccc(S(=O)(=O)Nc3ncns3)cc21 [Example 54, Hydrochloride]
no

API: above_or_equal(metric=pIC50, cutoff=6) for item COC(=O)n1cc(-c2ccc(C(F)(F)F)cc2-c2ccnn2C)c2ccc(S(=O)(=O)Nc3ncns3)cc21
yes

API: above_or_equal(metric=pIC50, cutoff=6) for item Cn1cc(-c2cccnc2)c2ccc(S(=O)(=O)Nc3ncns3)cc21
no

API: above_or_equal(metric=pIC50, cutoff=6) for item Cn1cc(-c2ccncc2Cl)c2ccc(S(=O)(=O)Nc3ncns3)cc21
no

API: above_or_equal(metric=pIC50, cutoff=6) for item CC#Cc1cncc(-c2cn(C)c3cc(S(=O)(=O)Nc4ncns4)ccc23)c1
no

API: above_or_equal(metric=pIC50, cutoff=6) for item Cn1cc(-c2cc(-c3ccncc3)cc(C(F)(F)F)c2)c2ccc(S(=O)(=O)Nc3ncns3)cc21
no

API: above_or_equal(metric=pIC50, cutoff=6) for item Cn1nccc1-c1cc(C(F)(F)F)ccc1-c1cn(C)c2cc(S(=O)(=O)Nc3ncns3)ccc12
yes

API: above_or_equal(metric=pIC50, cutoff=6) for item Cn1nccc1-c1cc(C(F)(F)F)ccc1-c1cn(C)c2cc(S(=O)(=O)Nc3nccs3)ccc12
no
